test system: RAW macrophages; assay: Cell-based NO2- scavenging activity (Griess assay, RAW macrophages); conditions: Table 2; relative to OPP 800 μg/mL = 100
value-type: % inhibition of ROS in comparison to Oil Palm phenolics (± S.E)

Reference set, count: 5
O=C(O)c1ccc(O)cc1 [p-hydoxybenzoic acid] | 17.3(±2.8) %
O=C(O)c1ccc(O)c(O)c1 [Protocatechuic acid] | 13 (±0.7) %
O=C(O)C1=C[C@@H](O)[C@@H](O)[C@H](O)C1 [Shikimic acid] | 5.2 (±0.7) %
O=C(/C=C/c1ccc(O)c(O)c1)O[C@@H]1CC(C(=O)O)=C[C@@H](O)[C@H]1O [5-Caffeoylshikimic acid, 5-caffeoylshikimic acid] | 13.4(±3.7) %
O=C(/C=C/c1ccc(O)c(O)c1)O[C@@H]1[C@H](O)C=C(C(=O)O)C[C@H]1O [4-Caffeoylshikimic acid, 4-caffeoylshikimic acid] | 12.7(±2.5) %

# evaluate next
Lookup: Give recorded % inhibition of ROS in comparison to Oil Palm phenolics (± S.E). O=C(/C=C/c1ccc(O)c(O)c1)O[C@@H]1C=C(C(=O)O)C[C@@H](O)[C@@H]1O [3-Caffeoylshikimic acid, 3-caffeoylshikimic acid]
Found: 18.6(±2.3) %
